- Condition: buffer; pH 7.4; 6.0 h; 150.0 µM
Measure name: solubility kinetic (µg/mL)

{"Compound": "O=C(Nc1cccc(C(F)(F)F)c1)Nc1cc(S(=O)(=O)NC2CC2)ccc1-c1ccsc1", "Measure name": "solubility kinetic", "Measurement qualifier": "<", "Value reported": 1}
{"Compound": "N#Cc1cnc(NS(=O)(=O)c2ccc(NC(=O)Cc3ccc(F)c(Cl)c3)cc2)s1", "Measure name": "solubility kinetic", "Measurement qualifier": ">", "Value reported": 67}
{"Compound": "O=C(c1nc(-c2ccc(Cl)cc2Cl)c2cnccn12)N1CCOCC1", "Measure name": "solubility kinetic", "Measurement qualifier": "=", "Value reported": 20.2}
{"Compound": "O=C(Nc1ccccc1C(=O)Nc1ccccc1C(=O)NCc1ccco1)c1ccco1", "Measure name": "solubility kinetic", "Measurement qualifier": "=", "Value reported": 4.45}
{"Compound": "CC(=O)c1c(C)[nH]c(C(=O)Nc2cccc(S(=O)(=O)N3CCOCC3)c2)c1C", "Measure name": "solubility kinetic", "Measurement qualifier": ">", "Value reported": 60}
{"Compound": "NC(=O)c1cnc(N[C@@H]2CCCC[C@@H]2N)nc1Nc1cccc(-n2nccn2)c1", "Measure name": "solubility kinetic", "Measurement qualifier": ">", "Value reported": 39}
{"Compound": "O=C1CCCC2=C1C(c1[nH]ncc1Cl)N=C(Nc1nc3cc([S+](=O)([O-])N4CCOCC4)ccc3o1)N2 (centres undefined)", "Measure name": "solubility kinetic", "Measurement qualifier": ">", "Value reported": 78}
{"Compound": "CNc1oc(-c2ccccc2-c2ccccc2)nc1C#N", "Measure name": "solubility kinetic", "Measurement qualifier": "=", "Value reported": 1.21}
{"Compound": "COc1cc2nc(N3CCCC3)nc(NCCCCCN3CCCC3)c2cc1OC", "Measure name": "solubility kinetic", "Measurement qualifier": ">", "Value reported": 61}
{"Compound": "NC(=O)C1CCN(c2ncc(-c3cccc(N4CCCCC4)c3)s2)CC1", "Measure name": "solubility kinetic", "Measurement qualifier": "=", "Value reported": 32.9}
{"Compound": "COc1ccnc(NC(=S)N2CCN(c3ccccc3C(F)(F)F)CC2)c1", "Measure name": "solubility kinetic", "Measurement qualifier": "=", "Value reported": 7}
{"Compound": "CS(=O)(=O)N1CCN(c2nc(-c3ccc(Br)cc3)cs2)CC1", "Measure name": "solubility kinetic", "Measurement qualifier": "<", "Value reported": 1}
{"Compound": "Cc1cc(C)nc(NC(=S)N2CCN(c3cccc(C(F)(F)F)c3)CC2)c1", "Measure name": "solubility kinetic", "Measurement qualifier": "=", "Value reported": 0.748}
{"Compound": "CC[C@@H](C)Nc1cc(C(=O)NC2CC3CCC(C2)N3c2ccc(C(=O)C3CC3)cn2)c(C)cc1C(N)=O (some centres undefined)", "Measure name": "solubility kinetic", "Measurement qualifier": "<", "Value reported": 1}
{"Compound": "FC1(F)CCN(c2nc(-c3ccncc3)nc3ccccc23)CC1", "Measure name": "solubility kinetic", "Measurement qualifier": "<", "Value reported": 1}
{"Compound": "CN(C)c1ccc(S(=O)(=O)N2CCCCC2)cc1NS(=O)(=O)c1ccc2ccccc2c1", "Measure name": "solubility kinetic", "Measurement qualifier": "=", "Value reported": 2.05}
{"Compound": "Oc1ccc2[nH]cc(CCCCN3CC=C(c4ccccc4)CC3)c2c1", "Measure name": "solubility kinetic", "Measurement qualifier": "=", "Value reported": 42.4}
{"Compound": "CC1CCC(n2c3cnccc3c3cnc(Nc4ccc5c(n4)CCN(C(=O)CO)C5)nc32)CC1 (centres undefined)", "Measure name": "solubility kinetic", "Measurement qualifier": "<", "Value reported": 1}
{"Compound": "Cc1cnc(-c2ccccc2C2COC2)nc1NCc1ccc(-c2cccnc2)cc1", "Measure name": "solubility kinetic", "Measurement qualifier": ">", "Value reported": 60}

Source of measurements: PubChem BioAssay AID1645848
